- target_or_test_system: DTX2 WWE domain (Homo sapiens, UniProt Q86UW9)
- Construct: DTX2 (Uniprot ID: Q86UW9, residues 3–189); His6-TEV site (N, cleaved yes)
- Sequence (Q86UW9 3-189): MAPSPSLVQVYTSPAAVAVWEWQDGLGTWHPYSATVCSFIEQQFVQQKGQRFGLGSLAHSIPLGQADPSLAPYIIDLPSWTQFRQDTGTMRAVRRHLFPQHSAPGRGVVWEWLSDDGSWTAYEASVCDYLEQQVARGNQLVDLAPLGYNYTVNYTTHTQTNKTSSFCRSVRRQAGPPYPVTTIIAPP
- assay: 15N-HSQC NMR Kd titration, DTX2 WWE domains
- assay_context: 15N-HSQC-NMR titration, mean of selected cross peaks ± SD
pKd: −log10 of the molar value.
readout_name: pKd

A = Nc1ncnc2c1ncn2[C@@H]1O[C@H](COP(=O)(O)OP(=O)(O)OP(=O)(O)O)[C@@H](O)[C@H]1O
B = Nc1ncnc2c1ncn2[C@@H]1O[C@H](COP(=O)(O)OP(=O)(O)OP(=O)(O)O)[C@@H](O)[C@H]1F
Q) Endpoint returns whichever of A and B has the numerically higher pKd. When you have decided, please share the label of that item.
A) B
(B: 3.34, A: 3.10)

* * *

- target_or_test_system: HUWE1 WWE domain (Homo sapiens)
- Construct: HUWE1 (Uniprot ID: Q7Z6Z7, residues 1611–1700); His6-TEV site (N, cleaved yes)
- Sequence (Q7Z6Z7 1611-1700): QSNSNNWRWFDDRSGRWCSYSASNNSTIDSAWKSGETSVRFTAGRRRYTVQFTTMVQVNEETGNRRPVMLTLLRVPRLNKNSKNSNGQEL
- assay: 15N-HSQC NMR Kd titration, HUWE1 WWE domain
- assay_context: 15N-HSQC-NMR titration, mean of selected cross peaks ± SD
pKd: −log10 of the molar value.
readout_name: pKd

A = O=C(O)CN1C(=O)c2ccccc2C1=O [compound (3), N-(Carboxymethyl)-phthalimide]
B = O=C(O)CN1C(=O)c2ccc(C(=O)O)cc2C1=O
C = Nc1ncnc2c1ncn2[C@@H]1O[C@H](COP(=O)(O)OP(=O)(O)OP(=O)(O)O)[C@@H](O)[C@H]1F
D = Nc1ncnc2c1ncn2[C@@H]1O[C@H](COP(=O)(O)OP(=O)(O)OP(=O)(O)O)[C@@H](O)[C@H]1O
Q) Could you arrange the 4 compounds above by pKd, starting with the largest number? To answer, arrange all of the labels according to the requested order.
A) C, D, B, A
(C: 4.82, D: 4.23, B: 3.69, A: 2.75)

* * *

- target_or_test_system: RNF146 WWE domain (Homo sapiens, UniProt Q9NTX7)
- Construct: RNF146 (Uniprot ID: Q9NTX7, residues 100-184); His6-TEV site (N, cleaved yes)
- Sequence (Q9NTX7 100-184): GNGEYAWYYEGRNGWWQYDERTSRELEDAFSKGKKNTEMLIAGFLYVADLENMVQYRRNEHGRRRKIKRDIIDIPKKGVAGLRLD
- assay: 15N-HSQC NMR Kd titration, RNF146 WWE domain
- assay_context: 15N-HSQC-NMR titration, mean of selected cross peaks ± SD
readout_name: Kd (µM)

A = Nc1nc(F)nc2c1ncn2[C@@H]1O[C@H](COP(=O)(O)OP(=O)(O)OP(=O)(O)O)[C@@H](O)[C@H]1O [2F-ATP 1]
B = Nc1ncnc2c1ncn2[C@@H]1O[C@H](COP(=O)(O)OP(=O)(O)OP(=O)(O)O)[C@@H](O)[C@H]1F [2’F-ATP 2]
Q) Hi! Which is lower in terms of Kd, the first one A or the second one B ? When you have decided, please share the label of that item.
A) A

* * *

- target_or_test_system: TRIP12 WWE domain (isoform 2) (Homo sapiens)
- Construct: TRIP12-2 (Uniprot ID: Q14669, residues 759–847); His6-TEV site (N, cleaved yes)
- Sequence (Q14669 with tags, fused parts or gaps): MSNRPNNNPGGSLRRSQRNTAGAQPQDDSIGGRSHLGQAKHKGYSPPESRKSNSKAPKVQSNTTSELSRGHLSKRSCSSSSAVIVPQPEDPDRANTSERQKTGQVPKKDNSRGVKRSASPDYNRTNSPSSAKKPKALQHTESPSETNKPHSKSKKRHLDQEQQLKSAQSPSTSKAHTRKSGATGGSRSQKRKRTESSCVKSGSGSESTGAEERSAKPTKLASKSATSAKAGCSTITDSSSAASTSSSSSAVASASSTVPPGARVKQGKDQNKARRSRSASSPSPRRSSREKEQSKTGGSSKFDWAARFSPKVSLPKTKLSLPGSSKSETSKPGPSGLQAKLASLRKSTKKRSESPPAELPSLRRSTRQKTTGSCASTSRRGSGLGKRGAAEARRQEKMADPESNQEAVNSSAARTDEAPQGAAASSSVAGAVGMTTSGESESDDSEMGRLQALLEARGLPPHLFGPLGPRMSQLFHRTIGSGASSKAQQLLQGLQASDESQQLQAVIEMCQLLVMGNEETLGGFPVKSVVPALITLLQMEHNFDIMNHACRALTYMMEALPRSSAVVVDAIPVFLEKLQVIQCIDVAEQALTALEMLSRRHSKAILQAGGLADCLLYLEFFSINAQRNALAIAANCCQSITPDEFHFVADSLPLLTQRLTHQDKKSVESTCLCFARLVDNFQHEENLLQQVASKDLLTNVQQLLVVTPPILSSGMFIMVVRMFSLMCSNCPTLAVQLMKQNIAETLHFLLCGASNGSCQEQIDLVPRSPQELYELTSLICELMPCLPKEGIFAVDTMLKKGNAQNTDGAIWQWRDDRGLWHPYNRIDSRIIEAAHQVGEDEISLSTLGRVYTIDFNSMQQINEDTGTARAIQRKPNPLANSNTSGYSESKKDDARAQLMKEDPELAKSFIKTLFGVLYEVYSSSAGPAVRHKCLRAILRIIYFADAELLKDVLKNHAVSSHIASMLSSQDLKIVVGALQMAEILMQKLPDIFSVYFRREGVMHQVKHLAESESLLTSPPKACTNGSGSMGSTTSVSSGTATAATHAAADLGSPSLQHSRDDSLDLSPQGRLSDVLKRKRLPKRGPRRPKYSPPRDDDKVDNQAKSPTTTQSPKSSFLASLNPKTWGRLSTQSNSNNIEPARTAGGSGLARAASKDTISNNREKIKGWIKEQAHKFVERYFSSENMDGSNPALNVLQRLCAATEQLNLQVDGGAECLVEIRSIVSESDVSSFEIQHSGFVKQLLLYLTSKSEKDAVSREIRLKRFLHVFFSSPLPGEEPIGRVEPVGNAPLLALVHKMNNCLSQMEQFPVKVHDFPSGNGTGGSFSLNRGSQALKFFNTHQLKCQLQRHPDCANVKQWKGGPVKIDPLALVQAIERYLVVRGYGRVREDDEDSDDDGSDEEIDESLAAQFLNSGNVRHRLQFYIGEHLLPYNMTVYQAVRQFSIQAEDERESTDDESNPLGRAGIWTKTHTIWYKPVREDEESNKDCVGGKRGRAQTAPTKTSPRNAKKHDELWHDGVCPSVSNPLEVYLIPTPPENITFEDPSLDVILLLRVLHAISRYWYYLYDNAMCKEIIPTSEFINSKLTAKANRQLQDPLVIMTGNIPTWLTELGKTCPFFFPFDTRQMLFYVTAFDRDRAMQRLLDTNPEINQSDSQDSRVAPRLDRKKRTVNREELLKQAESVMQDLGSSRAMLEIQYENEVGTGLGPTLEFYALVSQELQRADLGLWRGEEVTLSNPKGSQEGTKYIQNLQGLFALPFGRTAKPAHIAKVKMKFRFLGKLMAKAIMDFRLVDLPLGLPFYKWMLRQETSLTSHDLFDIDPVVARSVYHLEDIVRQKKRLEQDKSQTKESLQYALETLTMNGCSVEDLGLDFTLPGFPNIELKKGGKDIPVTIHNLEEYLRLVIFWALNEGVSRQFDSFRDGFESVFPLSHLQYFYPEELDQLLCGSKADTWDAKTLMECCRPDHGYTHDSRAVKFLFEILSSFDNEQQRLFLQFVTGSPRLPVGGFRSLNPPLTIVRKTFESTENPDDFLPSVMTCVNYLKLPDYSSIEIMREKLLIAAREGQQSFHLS
- assay: 15N-HSQC NMR Kd titration, TRIP12 WWE domain
- assay_context: 15N-HSQC-NMR titration, mean of selected cross peaks ± SD
readout_name: Kd (µM)

{"columns": ["compound", "Kd [µM]"],
 "data": [
  ["Nc1ncnc2c1ncn2[C@@H]1O[C@H](COP(=O)(O)OP(=O)(O)OP(=O)(O)O)[C@@H](O)[C@H]1F [2’F-ATP 2]", 125]
]}

P = Nc1ncnc2c1ncn2[C@@H]1O[C@H](COP(=O)(O)OP(=O)(O)OP(=O)(O)O)[C@@H](O)[C@H]1O [ATP]
Q = Nc1nc(F)nc2c1ncn2[C@@H]1O[C@H](COP(=O)(O)OP(=O)(O)OP(=O)(O)O)[C@@H](O)[C@H]1O [2F-ATP 1]
Q) Hi! Which is lower in terms of Kd, the first one P or the second one Q ? When you have decided, please share the label of that item.
A) Q
(Q: 127 µM, P: 316 µM)

* * *

- target_or_test_system: DTX1 WWE domain (Homo sapiens, UniProt Q86Y01)
- Construct: DTX1 (Uniprot ID: Q86Y01, residues 21–184); His6-TEV site (N, cleaved yes)
- Sequence (Q86Y01 21-184): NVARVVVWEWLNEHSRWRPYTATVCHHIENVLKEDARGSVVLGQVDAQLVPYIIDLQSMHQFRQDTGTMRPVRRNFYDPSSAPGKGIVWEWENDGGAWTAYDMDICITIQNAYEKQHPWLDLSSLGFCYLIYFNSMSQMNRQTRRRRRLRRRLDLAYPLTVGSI
- assay: 15N-HSQC NMR Kd titration, DTX1 WWE domains
- assay_context: 15N-HSQC-NMR titration, mean of selected cross peaks ± SD
pKd: −log10 of the molar value.
readout_name: pKd

{"columns": ["line_notation", "readout_name", "reported_value"],
 "data": [
  ["Nc1ncnc2c1ncn2[C@@H]1O[C@H](COP(=O)(O)OP(=O)(O)OP(=O)(O)O)[C@@H](O)[C@H]1F", "pKd", 3.26]
]}

1 = Nc1nc(F)nc2c1ncn2[C@@H]1O[C@H](COP(=O)(O)OP(=O)(O)OP(=O)(O)O)[C@@H](O)[C@H]1O
2 = Nc1ncnc2c1ncn2[C@@H]1O[C@H](COP(=O)(O)OP(=O)(O)OP(=O)(O)O)[C@@H](O)[C@H]1O
Q) Hi! Which is lower in terms of pKd, the first one 1 or the second one 2 ? When you have decided, please share the label of that item.
A) 2

Cited source: paper PMC11269756
